Origin of measurements: PubChem BioAssay (EPA / NIEHS)

read-out: adenosine kinase (ADK) gene, ADK (gene 132); experiment: LTEA_HepaRG_ADK: Life Technologies and Expression Analysis (LTEA) Assay for adenosine kinase (ADK) gene using HepaRG (AID 2283471); details: mRNA level, 48 h; actives raise or lower the signal
Calls of active or inactive are those of the source. The calls were made as follows: active = hit-call score of the fitted dose curve at least 0.9, where 1 is the maximum; inactive = score below 0.9.
Output constraint: value belongs to Yes (active), No (inactive)

A selection of reference data follows.
{"columns": ["molecule", "cat"],
 "data": [
  ["CC(C)(C)C(O)/C(=C\\c1ccc(Cl)cc1Cl)n1cncn1 (stereo not drawn)", "No"],
  ["O=C1c2ccccc2C(=O)N1SC(Cl)(Cl)Cl", "No"]
]}

input: Give the logged outcome of this assay for the following molecule: CCC(C)Nc1c([N+](=O)[O-])cc(C(C)(C)C)cc1[N+](=O)[O-] (stereo not drawn)
output: No

input: Give the logged outcome of this assay for the following molecule: "N#Cc1c(Cl)c(Cl)c(Cl)c(C#N)c1Cl"
output: No

input: Give the logged outcome of this assay for the following molecule: "CCCN(CCOc1c(Cl)cc(Cl)cc1Cl)C(=O)n1ccnc1"
output: No

input: Give the logged outcome of this assay for the following molecule: "COP(=S)(OC)Oc1ccc(SC)c(C)c1"
output: No

input: Give the logged outcome of this assay for the following molecule: "C[C@H]1[C@H](c2ccc(Cl)cc2)SC(=O)N1C(=O)NC1CCCCC1"
output: No

input: Give the logged outcome of this assay for the following molecule: "CC(C)N(C(=O)COc1nnc(C(F)(F)F)s1)c1ccc(F)cc1"
output: No
